System Tested: TWF2 (Twinfilin actin-binding protein; Flag-TWF2) (Homo sapiens, UniProt Q6IBS0)
Construct: Flag-tagged TWF2 overexpressed in 293F cells, purified with anti-Flag magnetic beads
Sequence (Q6IBS0 2-349): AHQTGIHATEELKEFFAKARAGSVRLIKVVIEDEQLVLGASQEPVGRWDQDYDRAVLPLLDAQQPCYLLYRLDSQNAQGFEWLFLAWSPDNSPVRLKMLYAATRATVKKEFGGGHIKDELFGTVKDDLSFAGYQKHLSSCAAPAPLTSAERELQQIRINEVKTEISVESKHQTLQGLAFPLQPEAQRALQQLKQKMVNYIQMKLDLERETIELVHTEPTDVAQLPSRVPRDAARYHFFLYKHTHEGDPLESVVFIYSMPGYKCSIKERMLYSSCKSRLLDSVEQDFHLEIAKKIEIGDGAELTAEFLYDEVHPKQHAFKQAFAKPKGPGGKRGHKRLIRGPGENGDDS
Experimental Details: isothermal titration calorimetry
Experimental Setup: 25 °C; 20 mM HEPES pH 7.5, 300 mM NaCl, 2 mM MgCl2; 1 mM Sal E titrated into 100 µM TWF2; single-site model
Measured Metric: Kd (µM)
Express it in µM; write the number only.

Retrieve Kd on TWF2 (Twinfilin actin-binding protein; Flag-TWF2) (Homo sapiens, UniProt Q6IBS0); query O=C(/C=C/c1ccc(O)c(O)c1/C(=C\c1ccc(O)c(O)c1)C(=O)O[C@H](Cc1ccc(O)c(O)c1)C(=O)O)O[C@H](Cc1ccc(O)c(O)c1)C(=O)O [Salvianolic acid E]
16.7
